Source listed as patent US10940139B2.

Measured target: KRas G12D/Q61H double mutant (Homo sapiens (Human), UniProt P01116, G12D/Q61H)
Sequence (P01116-2 other isoform, or with tags, fused parts or gaps G12D/Q61H): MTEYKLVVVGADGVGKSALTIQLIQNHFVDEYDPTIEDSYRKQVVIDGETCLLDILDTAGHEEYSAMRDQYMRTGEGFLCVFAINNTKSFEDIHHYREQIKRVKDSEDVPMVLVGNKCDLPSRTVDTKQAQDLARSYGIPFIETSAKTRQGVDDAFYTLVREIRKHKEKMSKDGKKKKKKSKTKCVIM
Measurement notes: Ras GTP binding domain inhibition assay (labeled GTP)
Condition description: 20 μM compound; read-out: % Inhibition at 20 μM KRas G12D Q61H
Metric name: inhibition at 20 µM

{"Compound": "Oc1nc(-c2ccccn2)nc2c(-c3ccc(OC4CCOC4)cc3)csc12 (centres unmarked) [drawing 2862]", "Recorded value": "25 to 50%"}
{"Compound": "COCCN(CCOC)c1nc(-c2ccccn2)nc2c1CCC2", "Recorded value": "25 to 50%"}
{"Compound": "COc1ccc(C2CN(C(=O)c3csc4c(O)nc(-c5ccccn5)nc34)CCN2)cc1 (centres unmarked) [drawing 2774]", "Recorded value": "1 to 25%"}
{"Compound": "FC(F)(F)c1csc2nc(-c3ccccn3)nc(N3CCOCC3)c12 [drawing 2741]", "Recorded value": "1 to 25%"}
{"Compound": "CC1CCN(C(=O)c2csc3c(O)nc(-c4ccccn4)nc23)CC1 [drawing 2674]", "Recorded value": "51 to 75%"}
